system-tested: Mcl-1/Bim interaction, recombinant human Mcl-1 (171-327) (Homo sapiens, UniProt Q07820)
Construct: made in house
Sequence (Q07820 171-327): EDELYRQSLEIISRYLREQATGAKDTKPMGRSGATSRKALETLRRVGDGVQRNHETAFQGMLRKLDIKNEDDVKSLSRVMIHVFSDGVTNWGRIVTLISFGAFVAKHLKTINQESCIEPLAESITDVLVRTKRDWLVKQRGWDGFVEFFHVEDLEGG
test-method-notes: Cell free Mcl-1: Bim Affinity Assay (Mcl-1 HTRF)
Type: binding
condition-info: TR-FRET, 0.1 nM Mcl-1 (171-327), 0.05 nM biotin-Bim (51-76)
property-name: pIC50
Numbers only, as −log10 of the molar value.

compound="CC[C@H]1CCCOC[C@@H]2CC[C@H]2CN2C[C@@]3(CCCc4cc(Cl)ccc43)COc3ccc(cc32)C(=O)NS1(=O)=O (single isomer, unassigned)" property_name=pIC50 recorded_result=8.40
compound=COCCN(C)C(=O)CO[C@H]1/C=C/C[C@H](C)[C@@H](C)S(=O)(=O)NC(=O)c2ccc3c(c2)N(C[C@@H]2CC[C@H]21)C[C@@]1(CCCc2cc(Cl)ccc21)CO3 property_name=pIC50 recorded_result=9.56
compound=C[C@@H]1[C@@H](C)C/C=C/[C@H](OCC(=O)N2CCNC(=O)C2)[C@@H]2CC[C@H]2CN2C[C@@]3(CCCc4cc(Cl)ccc43)COc3ccc(cc32)C(=O)NS1(=O)=O property_name=pIC50 recorded_result=9.87
compound=O=C1NS(=O)(=O)C/C=C/[C@H](O)[C@@H]2CC[C@H]2CN2C[C@@]3(CCCc4cc(Cl)ccc43)COc3ccc1cc32 property_name=pIC50 recorded_result=8.15

Inquiry: For the compound shown here, CO[C@H]1/C=C/[C@@H]2CCC[C@H](C2)S(=O)(=O)NC(=O)c2ccc3c(c2)N(C[C@@H]2CC[C@H]21)C[C@@]1(CCCc2cc(Cl)ccc21)CO3 (single isomer, unassigned) , give the reported pIC50.
Reply text: 8.95

* * *

system-tested: Mcl-1/Bim interaction, recombinant human Mcl-1 (171-327) (Homo sapiens)
Construct: made in house
test-method-notes: Cell free Mcl-1: Bim Affinity Assay (Mcl-1 HTRF)
Type: binding
condition-info: TR-FRET, 0.1 nM Mcl-1 (171-327), 0.05 nM biotin-Bim (51-76)
property-name: IC50 (nM)
Give bare numbers, in nM.

Example compounds with recorded IC50:
compound=CC[C@@H]1CC/C=C/[C@H](OCC(=O)OC)[C@@H]2CC[C@H]2CN2C[C@@]3(CCCc4cc(Cl)ccc43)COc3ccc(cc32)C(=O)NS1(=O)=O units_of_measure=nM recorded_result=0.644
compound="CC[C@@H]1C[C@@H](C)/C=C/[C@H](OCCOC)[C@@H]2CC[C@H]2CN2C[C@@]3(CCCc4cc(Cl)ccc43)COc3ccc(cc32)C(=O)NS1(=O)=O (single isomer, unassigned)" units_of_measure=nM recorded_result=0.411
compound="COCCN1[C@@H](C)C/C=C\\[C@H](O)[C@@H]2CC[C@H]2CN2C[C@@]3(CCCc4cc(Cl)ccc43)COc3ccc(cc32)C(=O)NS1(=O)=O (single isomer, unassigned)" units_of_measure=nM recorded_result=0.728
compound=C[C@@H]1[C@@H](C)C[C@H](CC#N)/C=C/[C@@H]2CC[C@H]2CN2C[C@@]3(CCCc4cc(Cl)ccc43)COc3ccc(cc32)C(=O)NS1(=O)=O units_of_measure=nM recorded_result=6.15
compound=CO[C@H]1/C=C/[C@@H](C)[C@H](C)[C@@H](C)S(=O)(=O)NC(=O)c2ccc3c(c2)N(C[C@@H]2CC[C@H]21)C[C@@]1(CCCc2cc(Cl)ccc21)CO3 units_of_measure=nM recorded_result=1.19

For each listed entry, give its IC50.
1. CC12CC=CC(O)C3CCC3CN3CC4(CCCc5cc(Cl)ccc54)COc4ccc(cc43)C(=O)NS(=O)(=O)C1CCC2 (single isomer, unassigned)
2. C[C@@H]1C[C@@H](C)/C=C/[C@H](OCCN2CCOCC2)[C@@H]2CC[C@H]2CN2C[C@@]3(CCCc4cc(Cl)ccc43)COc3ccc(cc32)C(=O)NS1(=O)=O
3. CO[C@H]1/C=C/C[C@H]2COCC[C@@H]2S(=O)(=O)NC(=O)c2ccc3c(c2)N(C[C@@H]2CC[C@H]21)C[C@@]1(CCCc2cc(Cl)ccc21)CO3 (single isomer, unassigned)

Reply text:
2
0.356
2.29

# return IC50 for each item in the list
1. COCCO[C@H]1/C=C/C[C@H](C)NS(=O)(=O)NC(=O)c2ccc3c(c2)N(C[C@@H]2CC[C@H]21)C[C@@]1(CCCc2cc(Cl)ccc21)CO3
2. O=C1NS(=O)(=O)[C@H]2COC[C@H]2C/C=C/[C@H](O)[C@@H]2CC[C@H]2CN2C[C@@]3(CCCc4cc(Cl)ccc43)COc3ccc1cc32 (single isomer, unassigned)
3. C[C@@H]1[C@@H](C)/C=C/C[C@H](OCCN2CCOCC2)[C@@H]2CC[C@H]2CN2C[C@@]3(CCCc4cc(Cl)ccc43)COc3ccc(cc32)C(=O)NS1(=O)=O
4. CNC(=O)CO[C@H]1/C=C/CC[C@@H](C)S(=O)(=O)NC(=O)c2ccc3c(c2)N(C[C@@H]2CC[C@H]21)C[C@@]1(CCCc2cc(Cl)ccc21)CO3
5. C[C@@H]1[C@@H](C)C/C=C/[C@H](OCCS(N)(=O)=O)[C@@H]2CC[C@H]2CN2C[C@@]3(CCCc4cc(Cl)ccc43)COc3ccc(cc32)C(=O)NS1(=O)=O

Reply text:
1: 0.359; 2: 4.42; 3: 2.21; 4: 0.442; 5: 0.393

* * *

system-tested: Mcl-1/Bim interaction, recombinant human Mcl-1 (171-327) (Homo sapiens, UniProt Q07820)
Construct: made in house
test-method-notes: Cell free Mcl-1: Bim Affinity Assay (Mcl-1 HTRF)
Format: binding
condition-info: TR-FRET, 0.1 nM Mcl-1 (171-327), 0.05 nM biotin-Bim (51-76)
So I've got a bunch of compounds here, and I need their pIC50 values.
Numbers only, as −log10 of the molar value.

Below, 3 compounds whose answers are already recorded.
compound="O=C1NS(=O)(=O)[C@@H](C(F)(F)F)CCCC[C@H](O)[C@@H]2CC[C@H]2CN2C[C@@]3(CCCc4cc(Cl)ccc43)COc3ccc1cc32 (single isomer, unassigned) [Example 433]" recorded_result=8.49
compound="C[C@@H]1CC/C=C/[C@H](O)[C@]2(C)CC[C@H]2CN2C[C@@]3(CCCc4cc(Cl)ccc43)COc3ccc(cc32)C(=O)NS1(=O)=O (single isomer, unassigned) [Example 116]" recorded_result=9.07
compound="CS(=O)(=O)CCN1CC/C=C\\[C@H](O)[C@@H]2CC[C@H]2CN2C[C@@]3(CCCc4cc(Cl)ccc43)COc3ccc(cc32)C(=O)NS1(=O)=O [Example 37]" recorded_result=9.21

Could I get pIC50 for every one of these entries?
1. C[C@H]1C/C=C/[C@H](OCCN2CCOCC2)[C@@H]2CC[C@H]2CN2C[C@@]3(CCCc4cc(Cl)ccc43)COc3ccc(cc32)C(=O)NS(=O)(=O)[C@@H]1CC1CC1 (single isomer, unassigned) [Example 386]
2. O=C1NS(=O)(=O)N2CCC[C@H]2C/C=C/[C@H](O)[C@@H]2CC[C@H]2CN2C[C@@]3(CCCc4cc(Cl)ccc43)COc3ccc1cc32 (single isomer, unassigned) [Example 345]

Reply text:
9.20
9.06

* * *

system-tested: Mcl-1/Bim interaction, recombinant human Mcl-1 (171-327) (Homo sapiens)
Construct: made in house
test-method-notes: Cell free Mcl-1: Bim Affinity Assay (Mcl-1 HTRF)
Format: binding
condition-info: cell free Mcl-1:Bim TR-FRET, recombinant human Mcl-1 (171-327)
property-name: IC50 (nM)
Give bare numbers, in nM.

compound="C[C@H]1CCCC(=O)[C@@H]2CC[C@H]2CN2C[C@@]3(CCCc4cc(Cl)ccc43)COc3ccc(cc32)C(=O)NS1(=O)=O (single isomer, unassigned) [Example 760]" system_tested="Mcl-1/Bim interaction, recombinant human Mcl-1 (171-327) (Homo sapiens)" recorded_result=15.8
compound="COCCCO[C@H]1/C=C/C[C@H](C)[C@@H](C)S(=O)(=O)NC(=O)c2ccc3c(c2)N(C[C@@H]2CC[C@H]21)C[C@@]1(CCCc2cc(Cl)ccc21)CO3 [Example 512]" system_tested="Mcl-1/Bim interaction, recombinant human Mcl-1 (171-327) (Homo sapiens)" recorded_result=0.998

Inquiry: // IC50 lookup, key: Cc1nc(CN(Cc2noc(C)n2)[C@H]2/C=C/CC[C@@H](C)S(=O)(=O)NC(=O)c3ccc4c(c3)N(C[C@@H]3CC[C@H]32)C[C@@]2(CCCc3cc(Cl)ccc32)CO4)no1 [Example 602]
Reply text: 1.74

* * *

system-tested: Mcl-1/Bim interaction, recombinant human Mcl-1 (171-327) (Homo sapiens, UniProt Q07820)
Construct: made in house
test-method-notes: Cell free Mcl-1: Bim Affinity Assay (Mcl-1 HTRF)
Assay type: binding
condition-info: TR-FRET, 0.1 nM Mcl-1 (171-327), 0.05 nM biotin-Bim (51-76)
Procedure: Cell free Mcl-1: Bim Affinity Assay (Mcl-1 HTRF) The inhibition of the Mcl-1/Bim interaction was measured using a time-resolved fluorescence resonance energy transfer (TR-FRET) assay. […] A biotinylated peptide derived from human Bim (residues 51-76) was purchased from CPC Scientific (San Jose, CA). […] The reaction plates were further incubated overnight and then were read on an Envision® multimode reader (PerkinElmer). […]
For each entry below, report its log10 IC50 value.
# log10 transformed; quantity=IC50; unit=nM

Answer for every listed entry: what is its log10 IC50? The entries follow.
1. CC[C@H](O[C@H]1/C=C/C[C@H](C)[C@@H](C)S(=O)(=O)NC(=O)c2ccc3c(c2)N(C[C@@H]2CC[C@H]21)C[C@@]1(CCCc2cc(Cl)ccc21)CO3)C(=O)N(C)C (single isomer, unassigned) [Example 430]
2. CC[C@@H]1CC[C@@H](O)/C=C/[C@@H]2CC[C@H]2CN2C[C@@]3(CCCc4cc(Cl)ccc43)COc3ccc(cc32)C(=O)NS1(=O)=O (single isomer, unassigned) [Example 198]
3. O=C1NS(=O)(=O)[C@H]2CC[C@@H]2C/C=C/[C@H](O)[C@@H]2CC[C@H]2CN2C[C@@]3(CCCc4cc(Cl)ccc43)COc3ccc1cc32 (single isomer, unassigned) [Example 90]

Reply text:
1: -0.13; 2: 0.51; 3: -0.36

Please give log10 IC50 for each item listed below.
1. C[C@@H]1CC/C=C/[C@H](O)[C@]2(C)CC[C@H]2CN2C[C@@]3(CCCc4cc(Cl)ccc43)COc3ccc(cc32)C(=O)NS1(=O)=O (single isomer, unassigned) [Example 118]
2. CC[C@@H]1CC/C=C/[C@H](NC(=O)C(C)C)[C@@H]2CC[C@H]2CN2C[C@@]3(CCCc4cc(Cl)ccc43)COc3ccc(cc32)C(=O)NS1(=O)=O [Example 1077]

Reply text:
1. 1.54
2. 0.54
